Provenance of the data: patent US20190112316A1

# Subject Of Test: glucocerebrosidase (Gcase) (Homo sapiens)
# Construct: micellar solution containing 10 nM GCase and 100 nM saposin C (Enzo ALX-201-262-C050)
# Sequence (P04062 40-536): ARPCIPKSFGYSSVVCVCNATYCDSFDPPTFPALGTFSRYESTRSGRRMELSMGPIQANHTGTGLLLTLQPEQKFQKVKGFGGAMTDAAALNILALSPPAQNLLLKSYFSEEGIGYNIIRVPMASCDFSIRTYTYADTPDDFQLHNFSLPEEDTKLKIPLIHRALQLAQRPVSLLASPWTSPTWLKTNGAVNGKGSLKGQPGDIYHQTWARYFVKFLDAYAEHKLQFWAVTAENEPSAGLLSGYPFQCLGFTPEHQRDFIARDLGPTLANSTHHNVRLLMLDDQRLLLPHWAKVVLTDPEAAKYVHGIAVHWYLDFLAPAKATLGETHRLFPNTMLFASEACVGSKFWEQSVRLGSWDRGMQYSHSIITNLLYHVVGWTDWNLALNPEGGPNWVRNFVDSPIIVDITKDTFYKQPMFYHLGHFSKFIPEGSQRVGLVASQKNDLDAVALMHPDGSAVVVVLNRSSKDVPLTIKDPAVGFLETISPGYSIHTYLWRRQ
# Test Description: Glucocerebrosidase (Gcase) activation assay, 4-methylumbelliferyl-beta-D-glucopyranoside substrate, with saposin C
# Assay type: biochemical
# Protocol Conditions: read-out: Percent Gcase Activation 1 μM Test Compound
Listed molecules paired with reported activation at 1 µM

// known answers, use as guide
[
  {
    "Smiles Repr": "O=C(Nc1ccc2c(c1)OCCO2)c1cnc2n(c1=O)CCS2",
    "Measured": "< 5%"
  },
  {
    "Smiles Repr": "O=C(Nc1ccc(-n2ccnc2)cc1)c1cnc2n(c1=O)CCS2",
    "Measured": "< 5%"
  },
  {
    "Smiles Repr": "CCc1ccc(NC(=O)c2cnc3ccccn3c2=O)cc1",
    "Measured": "5 to 20%"
  },
  {
    "Smiles Repr": "Cc1csc2ncc(C(=O)Nc3ccc(-c4cocn4)cc3)c(=O)n12",
    "Measured": "5 to 20%"
  },
  {
    "Smiles Repr": "CCCCc1ccc(NC(=O)c2cnc3sc4c(n3c2=O)CCCC4)cc1",
    "Measured": "5 to 20%"
  }
]

Enquiry: Requested read-out: activation at 1 µM. Entry: `Cc1cccc2ncc(C(=O)Nc3ccc(C4CCCCC4)cc3)c(=O)n12`
Return: > 20%

----------
# Subject Of Test: glucocerebrosidase (Gcase) (Homo sapiens, UniProt P04062)
# Construct: micellar solution containing 10 nM GCase and 100 nM saposin C (Enzo ALX-201-262-C050)
# Test Description: Glucocerebrosidase (Gcase) activation assay, 4-methylumbelliferyl-beta-D-glucopyranoside substrate, with saposin C
# Type: biochemical
# Protocol Conditions: read-out: Percent Gcase Activation 1 μM Test Compound
Assay Readout: activation at 1 µM

[
  {
    "Compound": "O=C(Nc1ccc(-c2cccs2)cc1)c1cnc2n(c1=O)CCS2",
    "activation at 1 µM": "5 to 20%"
  },
  {
    "Compound": "Cc1ccc(NC(=O)c2cnc3scc(C)n3c2=O)c(C)c1",
    "activation at 1 µM": "> 20%"
  },
  {
    "Compound": "Cc1cccc2ncc(C(=O)NC3CCCCCC3)c(=O)n12",
    "activation at 1 µM": "> 20%"
  },
  {
    "Compound": "CCCCC1CCC(NC(=O)c2cnc3n(c2=O)C(C)CS3)CC1 (stereo not drawn)",
    "activation at 1 µM": "> 20%"
  },
  {
    "Compound": "Cc1ccccc1NC(=O)c1cnc2scc(C)n2c1=O",
    "activation at 1 µM": "5 to 20%"
  },
  {
    "Compound": "O=C(Nc1ccc(C2CCCCC2)cc1)c1cnc2n(c1=O)CCS2",
    "activation at 1 µM": "> 20%"
  }
]

Enquiry: Requested read-out: activation at 1 µM. Entry: CCC(C)c1ccc(NC(=O)c2cnc3c(C)cccn3c2=O)cc1 (stereo not drawn)
Return: 5 to 20%

Enquiry: Continue with CCC1CCC(NC(=O)c2cnc3sccn3c2=O)CC1 (stereo not drawn)
Return: > 20%

Enquiry: Continue with `Cc1cccc2ncc(C(=O)Nc3ccc4c(c3)CN(C)C4)c(=O)n12`
Return: < 5%

Enquiry: Continue with `CCOc1ccccc1NC(=O)c1cnc2scc(C)n2c1=O`
Return: 5 to 20%

Enquiry: Continue with O=C(NC1CCC(c2ccccc2)CC1)c1cnc2n(c1=O)CCS2 (stereo not drawn)
Return: > 20%
